Target: human GLP-1R (Homo sapiens)
Sequence (P43220 24-463): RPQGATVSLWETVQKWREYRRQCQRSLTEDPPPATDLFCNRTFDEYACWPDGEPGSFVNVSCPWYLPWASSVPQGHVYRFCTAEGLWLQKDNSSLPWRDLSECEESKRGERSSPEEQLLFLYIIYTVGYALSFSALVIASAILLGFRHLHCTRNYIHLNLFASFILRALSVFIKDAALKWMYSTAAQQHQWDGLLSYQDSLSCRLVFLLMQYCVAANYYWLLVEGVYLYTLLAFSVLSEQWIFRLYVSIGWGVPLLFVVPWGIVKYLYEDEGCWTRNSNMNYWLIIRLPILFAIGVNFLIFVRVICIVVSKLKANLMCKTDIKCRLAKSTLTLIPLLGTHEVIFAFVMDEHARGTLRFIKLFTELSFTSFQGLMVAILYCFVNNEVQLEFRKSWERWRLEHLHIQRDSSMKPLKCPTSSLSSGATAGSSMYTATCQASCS
Assay: GLP-1R Cell Assay 1: cAMP Hunter CHO-K1 GLP1R Gs cell line, HitHunter cAMP assay
Assay type: cell-based
Details: Table 2; cAMP Hunter CHO-K1 GLP1R Gs cells; percent activity normalized to Exendin-4
Parameter: EC50 (nM)
Provide the reading as a plain figure in nM.

Any idea what its EC50 is? The compound is O=C(O)c1ccc2nc(CN3CC[C@]4(c5cccc(OCc6ccc(Cl)cc6Cl)n5)C[C@@H]4C3)n(C[C@@H]3CCO3)c2c1 (single isomer, unassigned) [Compound 126-P2]
0.373

Continuing:
Any idea what its EC50 is? The compound is O=C(O)c1ccc2nc(CN3CCN(c4cccc(OCCC5CCCCC5)n4)CC3)n(C[C@@H]3CCO3)c2c1 [Compound 44]
82.1

Any idea what its EC50 is? The compound is O=C(O)c1ccc2nc(CN3CCN(c4cccc(OC5(c6ccccc6)COC5)n4)CC3)n(C[C@@H]3CCO3)c2c1 [Compound 45]
21.7

Any idea what its EC50 is? The compound is C[C@H]1COC[C@@H](N2CCC(c3cccc(OCc4ccc(C#N)cc4F)n3)CC2)c2nc3ccc(C(=O)O)cc3n21 (single isomer, unassigned) [Compound 8-P2]
82.1

Any idea what its EC50 is? The compound is O=C(O)c1ccc2nc(CN3CCN(c4cccc(OCc5nc6c(F)cccc6s5)n4)CC3)n(C[C@@H]3CCO3)c2c1 [Compound 107]
1.07
